The values you see were collected from PubChem BioAssay (NCATS).

- Test system: KB-3-1
- ASSAY PROTOCOL: Cytotoxic Profiling of Annotated Libraries Using Quantitative High-Throughput Screening (AID 1296008); note: % is set by controls: 0 for no effect and ±100 for the full control effect; nearly all actives have a fitted effect of over 60% in size
- MEASUREMENT PARAMETERS: Five cell lines viability, CellTiter-Glo ATP luminescence, 48-72 h; hits give low values
Records with an inconclusive call do not appear.
Hi there, I'd appreciate the recorded max response for every entry that follows.
Answers are plain numbers, in %.

C=C1/C(=C/C=C2\CCC[C@]3(C)[C@@H]([C@@H](C)OCCC(O)(CC)CC)CC[C@@H]23)C[C@@H](O)C[C@@H]1O    -12.7
Fc1ccc(N2CCN(CCC3OCCc4ccccc43)CC2)cc1 (stereo not given)    -21.6
C=CCc1ccc(OC(C)Cc2ccc(OC)c(OC)c2)c(OC)c1 (stereo not given)    -25.6
CCC(CN)CC(C)CCNCC(O)CNCC(C)CC(CC)CN (stereo not given)    -5.63
Cc1ccccc1CNc1ncnc2c1ncn2[C@@H]1O[C@H](CO)[C@@H](O)[C@H]1O    -19

Need max response for each of these compounds.
1. C[C@@H]1O[C@@H](O[C@H]2[C@H](O[C@H]3CC[C@@]4(C)C(CC[C@]5(C)C4C=C[C@]46OC[C@@]7(CCC(C)(C)C[C@H]74)[C@@H](O[C@@H]4O[C@@H](C)[C@H](O)[C@@H](O)[C@H]4O)C[C@]65C)[C@]3(C)CO)O[C@H](CO)[C@@H](O)[C@@H]2O[C@@H]2O[C@H](CO)[C@@H](O)[C@H](O)[C@H]2O)[C@H](O)[C@H](O)[C@H]1O (stereo not given in full)
2. CC1(C)S[C@@H]2[C@H](NC(=O)C(C(=O)Oc3ccc4c(c3)CCC4)c3ccccc3)C(=O)N2[C@H]1C(=O)O (stereo not given in full)

1: -1.23; 2: 21.3
